# measuredTarget: Troponin I, cardiac muscle (Homo sapiens) + Troponin T, cardiac muscle (Homo sapiens) + Troponin C, slow skeletal and cardiac muscles (Homo sapiens) (UniProt P19429+P45379+P63316)
# runDescription: cardiac RTF calcium sensitivity activators, confirmation, biochemical, IANBD-TnC fluorescence, triplicate (AID 504383)
# details: IANBD-labeled cardiac RTF, Ca2+ sensitivity fluorescence; at 7.2 µM; scaled from EC20 to saturating calcium; tested at EC20 calcium, 0.472 mM
The whole screen tested about 2,500 compounds, of which about 1,200 (48%) were called active.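 Rule for the calls: active = mean activation above the low control average plus 3 SD, as set in the primary screen (cut at about 12% in these data); inactive = the rest.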 The set was probably picked from earlier hits. This is one part of the list.
Pick one and only one: active, inactive

Cc1[nH]c(=O)c(C#N)c(C)c1Cl = inactive
Cc1nn(C)c(C(=O)N2CCc3ccccc32)c1Br = active
CCOC(=O)/C(=C/C=C1\Sc2ccccc2N1CC)C(C)=O = active
Cc1cccc2cc3c(N)c(C(=O)N4CCc5ccccc54)sc3nc12 = inactive
CNc1ccc2c3c(cccc13)C(=O)N(C)C2=O = active
N=C1c2ccccc2CN1c1ccc(S(=O)(=O)N2CCCCC2)cc1 = active
COc1ccc(C2C(C#N)=C(N)N(c3cccnc3)C3=C2C(=O)CCC3)cc1Cn1cc([N+](=O)[O-])cn1 (stereo unspecified) = active
Clc1ccc(-c2cn3nc4c(nc3n2)CCCC4)cc1 = inactive

Data request: Given Cn1c(=O)c2cc(NCc3ccccc3)nnc2n(C)c1=O , state the outcome it received in this test.
Data returned: active

Data request: Given Cc1ccccc1N1C(=O)c2cccc3c(N(C)CCO)ccc(c23)C1=O , state the outcome it received in this test.
Data returned: inactive

Data request: Given Cc1ccc(S(=O)(=O)N2CCOCC2)cc1C(=O)N1C(=O)c2cccc(N)c2C1=O , state the outcome it received in this test.
Data returned: inactive

Where these numbers come from: PubChem BioAssay AID504383
